Values compiled from patent US20200121684A1.

# protocol: Pharmacokinetics after IV compound administration in mice
# Assay type: in vivo
# assay.setup: mouse, in vivo; IV mice (1 mg/Kg); read-out: Exposure (AUClast)
parameter: AUC(0-t) (ng·h/mL)

A = Nc1ncnc2c1c(-c1ccc(Oc3ccccc3)cc1)nn2C1CCN(CCOCCOCCOc2ccc3c(c2)CN(C2CCC(=O)NC2=O)C3=O)CC1 (stereo not drawn)
B = Nc1ncnc2c1c(-c1ccc(Oc3ccccc3)cc1)nn2C1CCN(CCOCCOCC(=O)Nc2ccc3c(c2)C(=O)N(C2CCC(=O)NC2=O)C3=O)CC1 (stereo not drawn)
C = Nc1ncnc2c1c(-c1ccc(Oc3ccccc3)cc1)nn2C1CCN(CCOCCOCCOc2ccc3c(c2)C(=O)N(C2CCC(=O)NC2=O)C3=O)CC1 (stereo not drawn)
input: Put the items above in order of decreasing AUC(0-t). # the answer lists labels in the order requested
output: A, C, B

* * *

# system.name: BTK (Homo sapiens, UniProt Q06187)
# Construct: host or cells: NAMALWA
# Sequence (Q06187 whole entry): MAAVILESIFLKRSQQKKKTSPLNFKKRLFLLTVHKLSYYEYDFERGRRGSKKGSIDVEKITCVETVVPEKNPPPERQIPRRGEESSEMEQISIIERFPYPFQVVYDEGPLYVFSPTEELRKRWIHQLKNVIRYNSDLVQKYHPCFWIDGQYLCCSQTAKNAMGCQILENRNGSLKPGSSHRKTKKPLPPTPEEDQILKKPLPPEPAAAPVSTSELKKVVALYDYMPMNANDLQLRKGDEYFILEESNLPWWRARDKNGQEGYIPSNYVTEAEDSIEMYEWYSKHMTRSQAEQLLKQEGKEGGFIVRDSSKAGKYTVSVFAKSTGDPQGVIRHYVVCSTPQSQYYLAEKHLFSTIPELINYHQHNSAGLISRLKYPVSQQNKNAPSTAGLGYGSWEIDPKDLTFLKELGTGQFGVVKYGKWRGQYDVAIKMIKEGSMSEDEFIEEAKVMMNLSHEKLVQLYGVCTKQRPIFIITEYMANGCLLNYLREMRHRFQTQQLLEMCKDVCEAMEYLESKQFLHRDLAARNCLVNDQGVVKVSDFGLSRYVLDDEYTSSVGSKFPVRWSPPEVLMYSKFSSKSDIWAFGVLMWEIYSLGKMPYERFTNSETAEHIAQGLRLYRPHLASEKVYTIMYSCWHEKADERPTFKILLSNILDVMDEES
# protocol: BTK degradation in NAMALWA cells, immunoblot
# Assay type: cell-based
# assay.setup: Table 6; in NAMALWA cells line
parameter: DC50 (nM)

compound="Nc1ncnc2c1c(-c1ccc(Oc3ccccc3)cc1)nn2C1CCN(CCOCCOCC(=O)Nc2ccc3c(c2)C(=O)N(C2CCC(=O)NC2=O)C3=O)CC1 (stereo not drawn) [Compound 102]" system_name="BTK (Homo sapiens, UniProt Q06187)" parameter=DC50 observed_result=11
compound="Nc1ncnc2c1c(-c1ccc(Oc3ccccc3)cc1)nn2C1CCN(CCOCCOCCOc2ccc3c(c2)CN(C2CCC(=O)NC2=O)C3=O)CC1 (stereo not drawn) [COMPOUND 135]" system_name="BTK (Homo sapiens, UniProt Q06187)" parameter=DC50 observed_result=8
compound="Nc1ncnc2c1c(-c1ccc(Oc3ccccc3)cc1)nn2C1CCN(CCOCCOCCOc2ccc3c(c2)C(=O)N(C2CCC(=O)NC2=O)C3=O)CC1 (stereo not drawn) [COMPOUND 131]" system_name="BTK (Homo sapiens, UniProt Q06187)" parameter=DC50 observed_result=11

* * *

# system.name: BTK (Homo sapiens)
# Construct: host or cells: NAMALWA
# protocol: BTK degradation in NAMALWA cells, immunoblot
# Format: cell-based
# assay.setup: NAMALWA cells; read-out: Dmax
Reported Dmax values are given for each entry in this list.

compound="Nc1ncnc2c1c(-c1ccc(Oc3ccccc3)cc1)nn2C1CCN(CCOCCOCCOc2ccc3c(c2)CN(C2CCC(=O)NC2=O)C3=O)CC1 (stereo not shown)" observed_result="> 99%"

input: API: value(readout=Dmax, system=BTK (Homo sapiens)) for record "Cc1ncsc1-c1ccc(CNC(=O)[C@@H]2C[C@@H](O)CN2C(=O)[C@H](C(C)C)N2Cc3ccccc3C2=O)c(OCCCCOCCCCN2CCC(n3nc(-c4ccc(Oc5ccccc5)cc4)c4c(N)ncnc43)CC2)c1"
output: < 50%

input: Param item: "Cc1ncsc1-c1ccc(CNC(=O)[C@@H]2C[C@@H](O)CN2C(=O)[C@H](C(C)C)N2Cc3ccccc3C2=O)c(OCCCOCCC(=O)N2CCC(n3nc(-c4ccc(Oc5ccccc5)cc4)c4c(N)ncnc43)CC2)c1"
output: < 50%

input: Param item: "Cc1ncsc1-c1ccc(CNC(=O)[C@@H]2C[C@@H](O)CN2C(=O)[C@@H](NC(=O)COCCOCCN2CCC(n3nc(-c4ccc(Oc5ccccc5)cc4)c4c(N)ncnc43)CC2)C(C)(C)C)cc1"
output: < 50%
